Data provenance: the C3SDB collision cross section collection

Conditions: [M-2H]2-; instrument: TW; calibrated with phosphatidylcholines (ESI+) and phosphatidylethanolamines (ESI-), doubly charged cardiolipins calibrated with poly-DL-…

[
  {
    "molecule": "CCCCCC/C=C\\CCCCCCCC(=O)OC(COC(=O)CCCCCCC/C=C\\CCCCCCCC)COP(=O)(O)OCC(O)COP(=O)(O)OCC(COC(=O)CCCCCCCCCCCCCCC)OC(=O)CCCCCCC/C=C\\CCCCCCCC (stereo not given) [CL(68:3)]",
    "collision cross section (N2)": "407.14 Å²"
  },
  {
    "molecule": "CCCCCC/C=C\\CCCCCCCC(=O)OCC(COP(=O)(O)OCC(O)COP(=O)(O)OCC(COC(=O)CCCCCCCCCCCCCCC)OC(=O)CCCCCCC/C=C\\CCCCCC)OC(=O)CCCCCCC/C=C\\CCCCCC (stereo not given) [CL(64:3)]",
    "collision cross section (N2)": "397.47 Å²"
  },
  {
    "molecule": "CCCCCCCC/C=C\\CCCCCCCC(=O)OC(COC(=O)CCCCCCCCCCCCCCC)COP(=O)(O)OCC(O)COP(=O)(O)OCC(COC(=O)CCCCCCCC1CC1CCCCCC)OC(=O)CCCCCCCCCCCCCCC (stereo not given) [CL(67:2)]",
    "collision cross section (N2)": "404.3 Å²"
  },
  {
    "molecule": "CCCCCC/C=C\\CCCCCCCC(=O)OC(COC(=O)CCCCCCCCCCCCCC)COP(=O)(O)OCC(O)COP(=O)(O)OCC(COC(=O)CCCCCCCCCCCCCCC)OC(=O)CCCCCCC/C=C\\CCCCCC (stereo not given) [CL(63:2)]",
    "collision cross section (N2)": "394.34 Å²"
  },
  {
    "molecule": "CCCCCCCC/C=C\\CCCCCCCC(=O)OCC(COP(=O)(O)OCC(O)COP(=O)(O)OCC(COC(=O)CCCCCCCCCCCCCCC)OC(=O)CCCCCCC/C=C\\CCCCCCCC)OC(=O)CCCCCCCCCCCCCCC (stereo not given) [CL(68:2)]",
    "collision cross section (N2)": "407.34 Å²"
  },
  {
    "molecule": "CCCCCC/C=C\\CCCCCCCC(=O)OCC(COP(=O)(O)OCC(O)COP(=O)(O)OCC(COC(=O)CCCCCCCCCCCCCCC)OC(=O)CCCCCCCC1CC1CCCCCC)OC(=O)CCCCCCC/C=C\\CCCCCC (stereo not given) [CL(65:3)]",
    "collision cross section (N2)": "400.07 Å²"
  },
  {
    "molecule": "CCCCCC/C=C\\CCCCCCCC(=O)OC(COC(=O)CCCCCCCCCCCCCCC)COP(=O)(O)OCC(O)COP(=O)(O)OCC(COC(=O)CCCCCCCCCCCCCC)OC(=O)CCCCCCCCCCCCCCC (stereo not given) [CL(63:1)]",
    "collision cross section (N2)": "394.72 Å²"
  },
  {
    "molecule": "CCCCCC/C=C\\CCCCCCCC(=O)OCC(COP(=O)(O)OCC(O)COP(=O)(O)OCC(COC(=O)CCCCCCCCCCCCCCC)OC(=O)CCCCCCC/C=C\\CCCCCCCC)OC(=O)CCCCCCC/C=C\\CCCCCC (stereo not given) [CL(66:3)]",
    "collision cross section (N2)": "401.91 Å²"
  },
  {
    "molecule": "CCCCCC/C=C\\CCCCCCCC(=O)OC(COC(=O)CCCCCCCCCCCCCCC)COP(=O)(O)OCC(O)COP(=O)(O)OCC(COC(=O)CCCCCCCCCCCCCCC)OC(=O)CCCCCCC/C=C\\CCCCCCCC (stereo not given) [CL(66:2)]",
    "collision cross section (N2)": "402.26 Å²"
  },
  {
    "molecule": "CCCCCC/C=C\\CCCCCCCC(=O)OCC(COP(=O)(O)OCC(O)COP(=O)(O)OCC(COC(=O)CCCCCCC/C=C\\CCCCCC)OC(=O)CCCCCCC/C=C\\CCCCCCCC)OC(=O)CCCCCCC/C=C\\CCCCCC (stereo not given) [CL(66:4)]",
    "collision cross section (N2)": "401.68 Å²"
  }
]
